Recorded values, source patent US20160297884A1.

Target: T1, Human BCMA (human, UniProt Q02223 1-54, limits assumed)
T1 construct: Soluble analyte in SPR; construct not described; also called huBCMA; B-cell maturation antigen
T1 sequence (looked up): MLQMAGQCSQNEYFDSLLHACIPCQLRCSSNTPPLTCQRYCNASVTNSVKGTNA
Experiment: SPR, IgG immobilised, 37 C
Experimental: All experiments were performed on a Bio-Rad Proteon XPR36 surface Plasmon resonance biosensor (Bio-Rad, Hercules, Calif.). […] The analysis temperature for the immobilization was 25° C. and the running buffer was HBS-T+(10 mM HEPES, 150 mM NaCl, 0.05% Tween-20, pH 7.4). […] The analysis temperature for the BCMA binding analysis was 37° C. or 25° C. in a running buffer of HBS-T+, supplemented with 1 mg/mL BSA. […] Immediately after the 50 nM BCMA injection, dissociation was monitored for 2 hours. […]

- binder: "L3.PY/L1.AH/H3.TAQ (antibody, V domains shown, IgG) VH: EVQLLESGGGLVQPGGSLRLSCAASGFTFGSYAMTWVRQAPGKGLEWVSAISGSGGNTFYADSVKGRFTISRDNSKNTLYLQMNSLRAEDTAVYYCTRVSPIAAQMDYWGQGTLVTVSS VL: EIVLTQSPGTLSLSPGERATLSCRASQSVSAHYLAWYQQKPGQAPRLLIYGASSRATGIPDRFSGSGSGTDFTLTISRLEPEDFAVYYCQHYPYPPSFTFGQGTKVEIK"
  koff, s⁻¹: 0.00119
- binder: "L3.PY/L1.PS/H3.AE (antibody, V domains shown, IgG) VH: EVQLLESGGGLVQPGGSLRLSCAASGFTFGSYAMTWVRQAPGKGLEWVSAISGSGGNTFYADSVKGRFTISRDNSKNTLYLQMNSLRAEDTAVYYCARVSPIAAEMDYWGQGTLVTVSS VL: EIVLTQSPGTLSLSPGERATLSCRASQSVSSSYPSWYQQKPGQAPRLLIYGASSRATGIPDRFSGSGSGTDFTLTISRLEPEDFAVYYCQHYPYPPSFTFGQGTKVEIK"
  koff, s⁻¹: 0.00146
